Each recorded value in this set is attributed to patent US9532990B2.

Would you kindly list IC50 for each of these compounds?
Biological target: BTK wild type (Homo sapiens (Human), UniProt Q06187)
Sequence (Q06187 whole entry): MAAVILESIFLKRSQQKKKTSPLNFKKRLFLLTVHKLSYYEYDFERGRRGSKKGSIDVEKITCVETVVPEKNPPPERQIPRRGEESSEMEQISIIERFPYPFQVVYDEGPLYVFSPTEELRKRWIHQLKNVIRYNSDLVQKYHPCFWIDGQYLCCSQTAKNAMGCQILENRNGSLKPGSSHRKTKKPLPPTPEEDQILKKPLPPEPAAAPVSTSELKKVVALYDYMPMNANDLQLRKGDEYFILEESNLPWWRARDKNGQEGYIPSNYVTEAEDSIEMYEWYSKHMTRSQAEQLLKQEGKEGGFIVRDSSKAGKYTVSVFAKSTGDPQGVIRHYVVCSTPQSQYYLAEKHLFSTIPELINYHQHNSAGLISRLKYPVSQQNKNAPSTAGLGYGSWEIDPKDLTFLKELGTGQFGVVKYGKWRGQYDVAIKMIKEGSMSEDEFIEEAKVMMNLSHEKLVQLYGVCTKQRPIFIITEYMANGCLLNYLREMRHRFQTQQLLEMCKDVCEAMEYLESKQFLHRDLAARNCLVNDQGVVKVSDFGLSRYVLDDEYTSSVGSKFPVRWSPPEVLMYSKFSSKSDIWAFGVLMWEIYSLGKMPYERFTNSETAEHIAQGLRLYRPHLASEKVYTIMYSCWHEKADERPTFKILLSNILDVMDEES
Assay: Inhibition assay of BTK kinase activity (HTRF)
Assay type: biochemical
Settings: read-out: BTK IC50
Numbers only, in nM.

Consider the following illustrative entries.
{"columns": ["compound", "property.name", "readout.units", "measured.value"],
 "data": [
  ["C=C(CN1CCCC(n2nc(-c3ccc(Oc4c(F)c(F)cc(F)c4F)cc3F)c3c(N)ncnc32)C1)C(=O)OCC (stereo not shown)", "IC50", "nM", 279],
  ["C=C(C#N)CN1CCCC(n2nc(-c3ccc(Oc4c(F)c(F)cc(F)c4F)cc3F)c3c(N)ncnc32)C1 (stereo not shown)", "IC50", "nM", 17],
  ["C=C(CO)C(=O)N1CCCC(n2nc(-c3ccc(Oc4c(F)c(F)cc(F)c4F)cc3F)c3c(N)ncnc32)C1 (stereo not shown)", "IC50", "nM", 87]
]}

Req: Lab note: need IC50 for Nc1ncnc2c1c(-c1ccc(Oc3c(F)c(F)cc(F)c3F)cc1F)nn2C1CCCN(C(=O)C(=O)C2CC2)C1 (stereo not shown) on BTK wild type (Homo sapiens (Human), UniProt Q06187), anyone have it?
Resp: 2240
